Where do these numbers come from? They come from patent US20230150952A1.

biological target: type 2 ryanodine receptor (Mus musculus, UniProt E9Q401); experiment: type 2 ryanodine receptor activity inhibitory effect: endoplasmic reticulum Ca2+ (R-CEPIA1er fluorescence) in RyR-expressing HEK293 cells; assay type: cell-based; details: final concentration 10^-9 to 10^-4 M; Hill equation fit; ER Ca2+ fluorescence in HEK293 cells
Sequence (E9Q401 whole entry): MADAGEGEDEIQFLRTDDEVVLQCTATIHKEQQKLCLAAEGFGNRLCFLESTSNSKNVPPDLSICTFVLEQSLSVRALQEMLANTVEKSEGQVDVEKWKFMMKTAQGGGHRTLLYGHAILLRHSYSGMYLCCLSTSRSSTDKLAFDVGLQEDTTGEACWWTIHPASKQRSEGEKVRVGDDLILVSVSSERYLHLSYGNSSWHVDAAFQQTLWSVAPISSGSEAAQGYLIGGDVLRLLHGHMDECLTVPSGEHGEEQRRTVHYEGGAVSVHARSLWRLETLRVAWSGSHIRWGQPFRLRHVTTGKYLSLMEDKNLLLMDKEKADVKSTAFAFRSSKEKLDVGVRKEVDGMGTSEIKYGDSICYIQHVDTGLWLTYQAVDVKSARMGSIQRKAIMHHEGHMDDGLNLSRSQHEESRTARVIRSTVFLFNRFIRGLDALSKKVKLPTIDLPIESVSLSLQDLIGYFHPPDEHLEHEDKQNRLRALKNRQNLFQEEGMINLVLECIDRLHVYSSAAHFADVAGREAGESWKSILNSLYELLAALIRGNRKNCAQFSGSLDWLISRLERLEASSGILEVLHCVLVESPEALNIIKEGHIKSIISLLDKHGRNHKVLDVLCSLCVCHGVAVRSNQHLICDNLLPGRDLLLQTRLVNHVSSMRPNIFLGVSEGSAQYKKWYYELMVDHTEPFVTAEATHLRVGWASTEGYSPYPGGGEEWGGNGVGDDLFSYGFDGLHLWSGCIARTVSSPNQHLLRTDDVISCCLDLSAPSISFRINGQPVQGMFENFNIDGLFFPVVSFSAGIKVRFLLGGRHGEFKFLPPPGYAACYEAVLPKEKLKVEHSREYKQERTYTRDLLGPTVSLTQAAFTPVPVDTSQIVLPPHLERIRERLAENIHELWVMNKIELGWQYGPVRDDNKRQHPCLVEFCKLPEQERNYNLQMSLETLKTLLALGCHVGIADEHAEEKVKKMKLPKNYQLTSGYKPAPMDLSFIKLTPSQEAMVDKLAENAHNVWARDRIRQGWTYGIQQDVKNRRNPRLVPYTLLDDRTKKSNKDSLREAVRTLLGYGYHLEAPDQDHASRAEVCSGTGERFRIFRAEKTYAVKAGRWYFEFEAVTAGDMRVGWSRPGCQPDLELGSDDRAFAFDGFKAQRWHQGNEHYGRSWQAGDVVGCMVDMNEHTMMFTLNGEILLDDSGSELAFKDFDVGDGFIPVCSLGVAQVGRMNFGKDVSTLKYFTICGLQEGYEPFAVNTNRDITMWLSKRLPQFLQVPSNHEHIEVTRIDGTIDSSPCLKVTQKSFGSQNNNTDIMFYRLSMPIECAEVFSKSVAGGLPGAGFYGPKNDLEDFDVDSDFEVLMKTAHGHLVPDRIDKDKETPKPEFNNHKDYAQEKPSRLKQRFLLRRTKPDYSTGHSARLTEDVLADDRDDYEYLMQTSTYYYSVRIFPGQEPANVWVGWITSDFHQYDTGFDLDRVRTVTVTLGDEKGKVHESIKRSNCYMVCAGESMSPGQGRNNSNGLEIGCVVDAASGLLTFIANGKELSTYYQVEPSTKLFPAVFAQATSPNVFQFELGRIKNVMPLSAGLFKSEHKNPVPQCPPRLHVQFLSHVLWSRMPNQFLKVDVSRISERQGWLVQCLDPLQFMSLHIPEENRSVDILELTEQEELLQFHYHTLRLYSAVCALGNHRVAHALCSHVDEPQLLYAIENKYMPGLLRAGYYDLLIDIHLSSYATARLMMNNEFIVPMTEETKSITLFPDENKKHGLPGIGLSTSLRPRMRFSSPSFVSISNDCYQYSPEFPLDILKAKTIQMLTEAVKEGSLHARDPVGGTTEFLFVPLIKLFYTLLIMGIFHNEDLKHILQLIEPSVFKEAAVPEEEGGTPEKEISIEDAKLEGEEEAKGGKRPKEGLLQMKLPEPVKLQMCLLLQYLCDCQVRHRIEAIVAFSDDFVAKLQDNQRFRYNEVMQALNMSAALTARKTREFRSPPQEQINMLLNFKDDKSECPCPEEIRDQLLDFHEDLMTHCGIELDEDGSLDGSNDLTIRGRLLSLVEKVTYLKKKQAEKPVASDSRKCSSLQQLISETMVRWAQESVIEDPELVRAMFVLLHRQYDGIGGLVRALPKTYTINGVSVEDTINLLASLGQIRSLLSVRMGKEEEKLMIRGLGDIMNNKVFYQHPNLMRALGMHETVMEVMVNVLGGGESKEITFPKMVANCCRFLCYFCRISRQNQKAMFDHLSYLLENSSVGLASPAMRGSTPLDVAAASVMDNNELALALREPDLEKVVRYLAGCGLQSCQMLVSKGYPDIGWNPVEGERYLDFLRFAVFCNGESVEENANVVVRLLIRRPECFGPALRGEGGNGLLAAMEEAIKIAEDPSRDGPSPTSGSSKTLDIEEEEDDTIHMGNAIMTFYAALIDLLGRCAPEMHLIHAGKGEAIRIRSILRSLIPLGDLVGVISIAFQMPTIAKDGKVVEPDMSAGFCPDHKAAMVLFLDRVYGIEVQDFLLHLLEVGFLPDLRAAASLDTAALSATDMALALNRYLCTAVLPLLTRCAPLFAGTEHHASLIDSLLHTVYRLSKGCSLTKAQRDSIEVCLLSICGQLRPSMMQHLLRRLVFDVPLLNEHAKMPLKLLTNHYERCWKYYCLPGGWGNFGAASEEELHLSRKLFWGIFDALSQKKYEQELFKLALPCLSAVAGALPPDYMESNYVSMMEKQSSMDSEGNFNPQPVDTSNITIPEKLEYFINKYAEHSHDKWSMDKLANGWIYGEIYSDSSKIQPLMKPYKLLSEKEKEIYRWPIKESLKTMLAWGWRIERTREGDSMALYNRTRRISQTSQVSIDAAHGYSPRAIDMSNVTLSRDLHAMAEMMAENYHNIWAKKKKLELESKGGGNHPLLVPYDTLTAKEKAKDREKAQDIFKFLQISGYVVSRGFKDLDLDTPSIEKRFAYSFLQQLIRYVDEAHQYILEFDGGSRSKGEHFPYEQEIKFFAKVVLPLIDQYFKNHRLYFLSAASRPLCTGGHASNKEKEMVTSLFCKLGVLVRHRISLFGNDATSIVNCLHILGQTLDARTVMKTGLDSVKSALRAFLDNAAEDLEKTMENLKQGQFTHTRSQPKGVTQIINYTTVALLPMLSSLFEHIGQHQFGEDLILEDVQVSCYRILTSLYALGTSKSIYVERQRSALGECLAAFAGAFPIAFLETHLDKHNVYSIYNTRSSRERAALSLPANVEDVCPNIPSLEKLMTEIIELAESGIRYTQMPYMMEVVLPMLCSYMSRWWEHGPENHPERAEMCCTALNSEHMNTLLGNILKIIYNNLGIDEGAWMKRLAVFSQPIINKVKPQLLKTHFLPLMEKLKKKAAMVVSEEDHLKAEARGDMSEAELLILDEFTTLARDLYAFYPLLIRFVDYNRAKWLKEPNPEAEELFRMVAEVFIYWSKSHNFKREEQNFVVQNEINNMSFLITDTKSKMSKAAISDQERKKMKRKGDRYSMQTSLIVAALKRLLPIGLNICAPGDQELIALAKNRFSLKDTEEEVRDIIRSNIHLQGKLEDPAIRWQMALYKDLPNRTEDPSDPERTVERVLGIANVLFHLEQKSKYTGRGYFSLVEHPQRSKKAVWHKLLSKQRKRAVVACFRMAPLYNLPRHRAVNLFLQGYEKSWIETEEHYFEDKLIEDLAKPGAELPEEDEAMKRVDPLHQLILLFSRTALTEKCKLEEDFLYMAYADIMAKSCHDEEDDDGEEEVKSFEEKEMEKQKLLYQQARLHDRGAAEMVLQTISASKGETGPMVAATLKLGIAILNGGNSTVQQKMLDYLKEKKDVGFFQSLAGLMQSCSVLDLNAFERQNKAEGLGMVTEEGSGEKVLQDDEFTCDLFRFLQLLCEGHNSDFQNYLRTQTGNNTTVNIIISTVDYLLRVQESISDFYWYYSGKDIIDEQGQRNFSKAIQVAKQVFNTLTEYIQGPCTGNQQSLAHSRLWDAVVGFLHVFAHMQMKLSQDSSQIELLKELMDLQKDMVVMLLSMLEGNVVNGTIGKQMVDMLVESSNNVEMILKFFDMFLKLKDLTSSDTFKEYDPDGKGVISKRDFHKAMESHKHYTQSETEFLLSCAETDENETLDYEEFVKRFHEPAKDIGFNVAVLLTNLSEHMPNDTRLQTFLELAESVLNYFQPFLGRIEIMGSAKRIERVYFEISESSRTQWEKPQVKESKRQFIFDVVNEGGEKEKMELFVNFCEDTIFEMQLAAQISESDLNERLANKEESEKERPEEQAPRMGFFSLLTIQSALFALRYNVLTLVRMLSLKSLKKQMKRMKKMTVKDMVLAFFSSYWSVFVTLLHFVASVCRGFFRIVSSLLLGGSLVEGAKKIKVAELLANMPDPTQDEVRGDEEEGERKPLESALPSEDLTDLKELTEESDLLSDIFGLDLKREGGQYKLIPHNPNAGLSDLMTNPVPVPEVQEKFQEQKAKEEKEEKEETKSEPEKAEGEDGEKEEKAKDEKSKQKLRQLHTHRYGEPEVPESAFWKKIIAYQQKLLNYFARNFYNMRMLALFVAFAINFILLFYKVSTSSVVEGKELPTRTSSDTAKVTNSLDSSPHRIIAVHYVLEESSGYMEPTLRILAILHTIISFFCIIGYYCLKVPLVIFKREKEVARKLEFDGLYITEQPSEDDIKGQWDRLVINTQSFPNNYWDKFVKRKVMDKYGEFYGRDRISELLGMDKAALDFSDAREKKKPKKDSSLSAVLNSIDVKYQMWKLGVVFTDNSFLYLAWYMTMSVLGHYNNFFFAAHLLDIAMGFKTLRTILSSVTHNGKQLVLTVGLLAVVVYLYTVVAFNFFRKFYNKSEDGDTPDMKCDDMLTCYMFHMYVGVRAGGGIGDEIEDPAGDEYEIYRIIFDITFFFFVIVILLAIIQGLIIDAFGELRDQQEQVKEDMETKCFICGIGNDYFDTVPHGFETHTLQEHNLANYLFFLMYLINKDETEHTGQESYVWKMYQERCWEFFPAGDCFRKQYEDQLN
endpoint: EC50 (nM)

I = COc1ccc(N(C)C(=O)Cn2nnc(-c3ccccc3)n2)cc1 [Compound 41]
II = CCN(C(=O)Cn1nnc(-c2ccccc2)n1)c1ccc(OC)cc1 [Compound 59]
**Query** Lowest EC50? choose I or II Write the label of whichever entry you select.
**Result** I

I = Cc1cccc(N(C)C(=O)Cn2nnc(-c3ccccc3)n2)c1 [Compound 37]
II = COc1ccc(-c2nnn(CC(=O)N(C)c3ccccc3)n2)cc1 [Compound 47]
**Query** Hi team, can someone confirm which has the larger EC50: I or II ? Thanks. To answer, give the label that identifies your chosen option.
**Result** II
(II: 1250 nM, I: 606 nM)
